Read-out: Matrix Metallopeptidase 1 (MMP1), MMP1 (gene 4312)
Assay: BSK_hDFCGF_MMP1: BioMAP Diversity Plus: hDFCGF Assay for Matrix Metallopeptidase 1 (MMP1) Biomarker Activity (AID 2283064)
Conditions: primary human foreskin fibroblasts; actives raise or lower the signal
Active and inactive are the calls of the source. Rule for the calls: active = hit-call score of the fitted dose curve at least 0.9, where 1 is the maximum; inactive = score below 0.9.
Respond with a class label; see Y for active, N for inactive

Worked examples, 5 molecules total:
COP(=S)(OC)Oc1ccc([N+](=O)[O-])c(C)c1 : N
Cn1c(-c2ccccc2)cc(-c2ccccc2)[n+]1C : N
CS(=O)(=O)c1cc(C(F)(F)F)ccc1C(=O)c1cnoc1C1CC1 : N
CCOC(=O)C(C)OC(=O)c1cc(Oc2ccc(C(F)(F)F)cc2Cl)ccc1[N+](=O)[O-] (stereo not given) : N
CCCCC(C#N)(Cn1cncn1)c1ccc(Cl)cc1 (stereo not given) : N

Which result was noted for this molecule in the test: CCCCOCN(C(=O)CCl)c1c(CC)cccc1CC
Y

Which result was noted for this molecule in the test: CSC(=O)c1c(C(F)F)nc(C(F)(F)F)c(C(=O)SC)c1CC(C)C
Y

Which result was noted for this molecule in the test: Cc1nc(N(C)C)nc(OC(=O)N(C)C)c1C
N

Which result was noted for this molecule in the test: CCN(CC)C(=O)C(C)Oc1cccc2ccccc12 (stereo not given)
N

Which result was noted for this molecule in the test: CCCC(=NOCC)C1=C(O)CC(CC(C)SCC)CC1=O (stereo not given)
N
